system: Human immunodeficiency virus type 1 protease (Human immunodeficiency virus 1, UniProt Q72874)
experimental.protocol: Inhibition of purified recombinant HIV-1 protease in a fluorogenic assay
Provide the recorded IC50 for the entries that follow.
Provide the reading as a plain figure in nM.

Exercise: Data request, read-out IC50, for CC(C)[C@H](NC(=O)OCCN1CCCC1)C(=O)N[C@@H](Cc1ccccc1)[C@@H](O)[C@H](Cc1ccccc1)NC(=O)[C@H](NC(=O)OCc1ccccc1)C(C)C
Key: 14

Exercise: Data request, read-out IC50, for CC(C)[C@H](NC(=O)N(C)Cc1cccnc1)C(=O)N[C@@H](Cc1ccccc1)[C@@H](O)[C@@H](O)[C@H](Cc1ccccc1)NC(=O)[C@H](NC(=O)N(C)Cc1cccnc1)C(C)C
Key: 1.6

Exercise: Data request, read-out IC50, for CC(C)[C@H](NC(=O)N1CCN(c2ccccc2)CC1)C(=O)N[C@@H](Cc1ccccc1)[C@@H](O)[C@@H](O)[C@H](Cc1ccccc1)NC(=O)[C@H](NC(=O)N1CCN(c2ccccc2)CC1)C(C)C
Key: 1.4

Exercise: Data request, read-out IC50, for CC(C)[C@H](NC(=O)OCC1CCCCN1C)C(=O)N[C@@H](Cc1ccccc1)[C@@H](O)[C@H](Cc1ccccc1)NC(=O)[C@H](NC(=O)OCc1ccccc1)C(C)C (stereo not given in full)
Key: 63

----------
Test system: Human immunodeficiency virus 1
experimental.protocol: In vitro for inhibition of cytopathic effect of HIV-1 3B in MT-4 lymphocytes.
Format: functional, organism-based
Provide the recorded EC50 for the entries that follow.
Provide the reading as a plain figure in nM.

Exercise: Data request, read-out EC50, for CC(C)[C@H](NC(=O)N(C)Cc1cscn1)C(=O)N[C@@H](Cc1ccccc1)[C@@H](O)[C@@H](O)[C@H](Cc1ccccc1)NC(=O)[C@H](NC(=O)N(C)Cc1cscn1)C(C)C
Key: 630

Exercise: Data request, read-out EC50, for CC(C)[C@H](NC(=O)N(C)Cc1ccccn1)C(=O)N[C@@H](Cc1ccccc1)[C@H](O)[C@@H](O)[C@H](Cc1ccccc1)NC(=O)[C@H](NC(=O)N(C)Cc1csc(N)n1)C(C)C
Key: 560

Exercise: Data request, read-out EC50, for CC(C)[C@H](NC(=O)/C=C/c1cccnc1)C(=O)N[C@@H](Cc1ccccc1)[C@@H](O)[C@@H](O)[C@H](Cc1ccccc1)NC(=O)[C@H](NC(=O)/C=C/c1cccnc1)C(C)C
Key: 6200

----------
experimental.protocol: In vitro for cytotoxicity in MT-4 lymphocytes in the absence of HIV infection
Assay type: cell-based, MT4
test.context: human
Provide the recorded CC50 for the entries that follow.

Exercise: Data request, read-out CC50, for CC(C)[C@H](NC(=O)OCCN1CCOCC1)C(=O)N[C@@H](Cc1ccccc1)[C@@H](O)[C@@H](O)[C@H](Cc1ccccc1)NC(=O)[C@H](NC(=O)OCCN1CCOCC1)C(C)C
Key: > 100 µM

Exercise: Data request, read-out CC50, for CC(C)[C@H](NS(=O)(=O)CCc1ccccn1)C(=O)N[C@@H](Cc1ccccc1)[C@@H](O)[C@@H](O)[C@H](Cc1ccccc1)NC(=O)[C@H](NS(=O)(=O)CCc1ccccn1)C(C)C
Key: > 100 µM

Exercise: Data request, read-out CC50, for CC(C)[C@H](NC(=O)OCCN1CCOCC1)C(=O)N[C@@H](Cc1ccccc1)[C@@H](O)[C@H](Cc1ccccc1)NC(=O)[C@H](NC(=O)OCc1ccccc1)C(C)C
Key: > 100 µM

Exercise: Data request, read-out CC50, for CC(C)[C@H](NC(=O)N1CCN(Cc2ccccc2)CC1)C(=O)N[C@@H](Cc1ccccc1)[C@H](O)[C@H](O)[C@H](Cc1ccccc1)NC(=O)[C@H](NC(=O)N1CCN(Cc2ccccc2)CC1)C(C)C
Key: > 100 µM

Exercise: Data request, read-out CC50, for CC(C)[C@H](NC(=O)OCc1ccncc1)C(=O)N[C@@H](Cc1ccccc1)[C@@H](O)[C@H](Cc1ccccc1)NC(=O)[C@H](NC(=O)OCc1ccccc1)C(C)C
Key: > 100 µM

Exercise: Data request, read-out CC50, for CC(C)[C@H](NS(=O)(=O)CCc1ccncc1)C(=O)N[C@@H](Cc1ccccc1)[C@@H](O)[C@@H](O)[C@H](Cc1ccccc1)NC(=O)[C@H](NS(=O)(=O)CCc1ccncc1)C(C)C
Key: > 100 µM

Exercise: Data request, read-out CC50, for CC(C)[C@H](NC(=O)N(C)Cc1csc(N)n1)C(=O)N[C@@H](Cc1ccccc1)[C@@H](O)[C@H](O)[C@H](Cc1ccccc1)NC(=O)[C@H](NC(=O)N(C)Cc1csc(N)n1)C(C)C
Key: > 100 µM

Exercise: Data request, read-out CC50, for CC(C)[C@H](NS(=O)(=O)N(C)Cc1ccccn1)C(=O)N[C@@H](Cc1ccccc1)[C@H](O)[C@H](O)[C@H](Cc1ccccc1)NC(=O)[C@H](NS(=O)(=O)N(C)Cc1ccccn1)C(C)C
Key: 65 µM

Exercise: Data request, read-out CC50, for CC(C)[C@H](NS(=O)(=O)N(C)Cc1ccccn1)C(=O)N[C@@H](Cc1ccccc1)C(O)[C@H](Cc1ccccc1)NC(=O)[C@H](NS(=O)(=O)N(C)Cc1ccccn1)C(C)C (stereo partly specified)
Key: 32 µM

Exercise: Data request, read-out CC50, for CC(C)[C@H](NC(=O)OCc1ccncc1)C(=O)N[C@@H](Cc1ccccc1)C(O)[C@H](Cc1ccccc1)NC(=O)[C@H](NC(=O)OCc1ccncc1)C(C)C (stereo partly specified)
Key: > 100 µM

Exercise: Data request, read-out CC50, for CC(C)[C@H](NC(=O)N(C)Cc1cscn1)C(=O)N[C@@H](Cc1ccccc1)[C@H](O)[C@@H](O)[C@H](Cc1ccccc1)NC(=O)[C@H](NC(=O)N(C)Cc1csc(N)n1)C(C)C
Key: > 100 µM
